Reference source: patent US20220387958A1

experiment: Flowability of amino acid derivative powders in confined state (annular shear cell, Evolution Powder Tester, pre-consolidation); format: physicochemical; settings: tests with confinement, densified with pre-consolidation forces
Measured endpoint: flowability

[[record]]
compound_string = "O=C(O)[C@@H]1CCCN1C(=O)OCC1c2ccccc2-c2ccccc21"
reading = "good flowability"

[[record]]
compound_string = "CC(C)(C)OC(=O)NCCCC[C@H](NC(=O)OCC1c2ccccc2-c2ccccc21)C(=O)O"
reading = "poor flowability"

[[record]]
compound_string = "O=C(O)CNC(=O)OCC1c2ccccc2-c2ccccc21"
reading = "poor flowability"

[[record]]
compound_string = "O=C(N[C@@H](CSC(c1ccccc1)(c1ccccc1)c1ccccc1)C(=O)O)OCC1c2ccccc2-c2ccccc21"
reading = "good flowability"


---

assay: Flowability of amino acid derivative powders in unconfined state (rotating drum, mass flow through a funnel, angle of repose); assay type: physicochemical; conditions: powder, tests without confinement
Measured endpoint: flowability

[[record]]
molecule = "O=C(O)CNC(=O)OCC1c2ccccc2-c2ccccc21 [Fmoc-Gly-OH]"
measured_endpoint = "flowability"
reading = "good"

[[record]]
molecule = "CSCC[C@H](NC(=O)OCC1c2ccccc2-c2ccccc21)C(=O)O [Fmoc-Met-OH]"
measured_endpoint = "flowability"
reading = "good flowability"

[[record]]
molecule = "O=C(N[C@@H](CSC(c1ccccc1)(c1ccccc1)c1ccccc1)C(=O)O)OCC1c2ccccc2-c2ccccc21 [Fmoc-Cys(Trt)-OH]"
measured_endpoint = "flowability"
reading = "good flowability"

